As shown below, each of these molecules has a reported AUC value.
Test: AUC in rat at 3 mg/kg, po
Format: ADME, organism-based
Parameters: dose 3 mg/kg, route oral
Conditions: plasma

>  <STRUCTURE_NOTATION>
COC(=O)N[C@H](C(=O)N1CCC[C@H]1C(=O)Nc1ccc([C@H]2CC[C@H](c3ccc(NC(=O)[C@@H]4CCCN4C(=O)[C@@H](NC(=O)OC)[C@@H](C)OC)cc3)N2c2ccc(F)cc2)cc1)[C@@H](C)OC

>  <VALUE_UNITS>
µg·h/mL

>  <AUC>
0.17

$$$$
>  <STRUCTURE_NOTATION>
COC(=O)N[C@H](C(=O)N1CCC[C@H]1C(=O)Nc1ccc([C@H]2CC[C@H](c3ccc(NC(=O)[C@@H]4CCCN4C(=O)[C@@H](NC(=O)OC)C(C)C)cc3)N2c2ccc(C(F)(F)F)cc2)cc1)C(C)C

>  <VALUE_UNITS>
µg·h/mL

>  <AUC>
1.36

$$$$
>  <STRUCTURE_NOTATION>
COC(=O)N[C@H](C(=O)N1CCC[C@H]1C(=O)Nc1ccc([C@H]2CC[C@H](c3ccc(NC(=O)[C@@H]4CCCN4C(=O)[C@@H](NC(=O)OC)[C@H]4CCOC4)cc3)N2c2ccc(F)cc2)cc1)[C@H]1CCOC1

>  <VALUE_UNITS>
µg·h/mL

>  <AUC>
0.02

$$$$
>  <STRUCTURE_NOTATION>
COC(=O)N[C@H](C(=O)N1CCC[C@H]1C(=O)Nc1ccc([C@H]2CC[C@H](c3ccc(NC(=O)[C@@H]4CCCN4C(=O)[C@@H](NC(=O)OC)C(C)(C)C)cc3)N2c2ccc(C(C)(C)C)cc2)cc1)C(C)(C)C

>  <VALUE_UNITS>
µg·h/mL

>  <AUC>
1.39

$$$$
>  <STRUCTURE_NOTATION>
COC(=O)N[C@H](C(=O)N1CCC[C@H]1C(=O)Nc1ccc([C@@H]2CC[C@@H](c3ccc(NC(=O)[C@@H]4CCCN4C(=O)[C@@H](NC(=O)OC)C(C)(C)C)cc3)N2c2ccc(F)cc2)cc1)C(C)(C)C

>  <VALUE_UNITS>
µg·h/mL

>  <AUC>
1.85

$$$$
